target: rat angiotensin 2 type 1 receptor (rat) (UniProt P25095); assay: cell-based or functional assay
Sequence (P25095 whole entry): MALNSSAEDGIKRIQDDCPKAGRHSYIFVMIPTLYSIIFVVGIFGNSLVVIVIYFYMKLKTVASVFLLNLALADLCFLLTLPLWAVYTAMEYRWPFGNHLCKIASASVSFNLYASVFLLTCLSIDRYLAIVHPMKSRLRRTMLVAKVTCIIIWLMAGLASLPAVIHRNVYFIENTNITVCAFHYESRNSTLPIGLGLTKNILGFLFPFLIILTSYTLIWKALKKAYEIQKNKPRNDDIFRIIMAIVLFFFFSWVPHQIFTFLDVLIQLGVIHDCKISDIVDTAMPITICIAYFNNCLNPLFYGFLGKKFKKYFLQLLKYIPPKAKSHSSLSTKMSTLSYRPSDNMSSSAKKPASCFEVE
Can you tell me IP One Max for the items I'm about to list?
Answers are plain numbers, in %.

Here is how some binders turned out for IP One Max.
>>> numeric_value("RVYVHPA (N-terminal Me2Gly; C-terminal acid) [SEQ ID NO: 31 (Me2G-Arg-Val-Tyr-Val-His-Pro-Ala-OH)]")
6.2
>>> numeric_value("FVYIHPFVYIHPFVYIHP (cyclic) [SEQ ID NO: 37 (Cyclo(Phe-Val-Tyr-Ile-His-Pro-Phe-Val-Tyr-Ile-His-Pro-Phe-Val-Tyr-Ile-His-Pro))]")
14.7
>>> numeric_value("RVYIHP (N-terminal Sar; C-terminal norvaline) [SEQ ID NO: 35 (Sar-Arg-Val-Tyr-Ile-His-Pro-NVA-OH)]")
30.5
>>> numeric_value("RVYYHPI (N-terminal Sar; C-terminal amide) [SEQ ID NO: 15 (Sar-Arg-Val-Tyr-Tyr-His-Pro-Ile-NH2)]")
51.1
>>> numeric_value("RVYVHPI (N-terminal Sar; C-terminal acid) [SEQ ID NO: 11 (Sar-Arg-Val-Tyr-Val-His-Pro-Ile-OH)]")
24.4

Take each entry in turn and give its IP One Max.
1. RVYRHPA (N-terminal Sar; C-terminal acid) [SEQ ID NO: 24 (Sar-Arg-Val-Tyr-Arg-His-Pro-Ala-OH)]
2. RVYIHPRVYIHPRVYIHP (cyclic) [SEQ ID NO: 36 (Cyclo(Arg-Val-Tyr-Ile-His-Pro-Arg-Val-Tyr-Ile-His-Pro-Arg-Val-Tyr-Ile-His-Pro))]
3. RVYYHPI (N-terminal Sar; C-terminal acid) [SEQ ID NO: 14 (Sar-Arg-Val-Tyr-Tyr-His-Pro-Ile-OH)]

Ans.
1. 15.1
2. 19.2
3. 19.3

Value source: patent US20240025949A1
